# Test Name: AUC (0 to t) in male Sprague-Dawley rat at 5 mg/kg, iv measured by LC-MS/MS analysis
# Type: ADME, organism-based
# Parameters: dose 5 mg/kg, route iv
# Measurement Setup: in vivo
Measured Endpoint: AUC(0-t) (ng·h/mL)
# value in ng·h/mL; strip the unit string

The reported value for `Cc1ccc(C(=O)Nc2cc(-c3cnn(C)c3)cc(C(F)(F)F)c2)cc1Nc1cc(-c2cccnc2)ccn1` in terms of AUC(0-t) is 5120

###

# Test Name: AUC (0 to t) in male Sprague-Dawley rat at 20 mg/kg, po measured by LC-MS/MS analysis
# Format: ADME, organism-based
# Design: dose 20 mg/kg, route po
# Measurement Setup: in vivo
Measured Endpoint: AUC(0-t)

The reported value for `Cc1ccc(C(=O)Nc2cc(-c3cnn(C)c3)cc(C(F)(F)F)c2)cc1Nc1cc(-c2cccnc2)ccn1` in terms of AUC(0-t) is 9890 ng·h/mL

###

# Test Name: Half-life in male Sprague-Dawley rat at 20 mg/kg, po measured by LC-MS/MS analysis
# Type: ADME, organism-based
# Measurement Setup: in vivo
Measured Endpoint: half-life (h)
# value in h; strip the unit string

The reported value for `Cc1ccc(C(=O)Nc2cc(-c3cnn(C)c3)cc(C(F)(F)F)c2)cc1Nc1cc(-c2cccnc2)ccn1` in terms of half-life is 3.54

###

# Test Name: Ratio of drug concentration in brain to plasma in male Sprague-Dawley rat at […], iv measured by LC-MS/MS analysis
# Assay type: ADME, organism-based
# Measurement Setup: dose 5 mg/kg, read-out: BPR
Measured Endpoint: Kp
Reply: number alone, nothing else.

The reported value for `Cc1ccc(C(=O)Nc2cc(-c3cnn(C)c3)cc(C(F)(F)F)c2)cc1Nc1cc(-c2cccnc2)ccn1` in terms of Kp is 4

###

# Test Name: AUC (0 to infinity) in male Sprague-Dawley rat at 5 mg/kg, iv measured by LC-MS/MS analysis
# Assay type: ADME, organism-based
# Set-up: time infinity, dose 5 mg/kg, route iv
# Measurement Setup: in vivo
Measured Endpoint: AUC(0-inf)
I'd appreciate it if you included the unit after the number.

The reported value for `Cc1ccc(C(=O)Nc2cc(-c3cnn(C)c3)cc(C(F)(F)F)c2)cc1Nc1cc(-c2cccnc2)ccn1` in terms of AUC(0-inf) is 5.2 µg·h/mL

###

# Test Name: Cytotoxicity against HEK293 cells incubated for 48 hrs and measured by MTT assay
# Assay type: toxicity, cell-based
# Measurement Setup: human
Kindly state IC50 at 48 h for each of the entries shown.
# value in µM; strip the unit string

The reported value for `Cc1ccc(C(=O)Nc2ccc(CN3CCN(C)CC3)c(C(F)(F)F)c2)cc1Nc1cc(-c2cccnc2)ccn1` in terms of IC50 at 48 h is 14

The reported value for Cc1cn(-c2cc(NC(=O)c3ccc(C)c(Nc4nccc(-c5cccnc5)n4)c3)cc(C(F)(F)F)c2)cn1 [NILOTINIB] in terms of IC50 at 48 h is 8.4

The reported value for `Cc1ccc(C(=O)Nc2ccc(CN3CCN(C)CC3)c(C(F)(F)F)c2)cc1Nc1cc(-c2cncnc2)ccn1` in terms of IC50 at 48 h is 17.1

###

# Test Name: Cytotoxicity against human SH-SY5Y cells incubated for 48 hrs and measured by MTT assay
# Format: toxicity, cell-based
Kindly state IC50 at 48 h for each of the entries shown.
# value in µM; strip the unit string

The reported value for `Cc1ccc(C(=O)Nc2ccc(CN3CCN(C)CC3)c(C(F)(F)F)c2)cc1Nc1cc(-c2cncnc2)ccn1` in terms of IC50 at 48 h is 12

The reported value for `Cc1ccc(C(=O)Nc2ccc(CN3CCN(C)CC3)c(C(F)(F)F)c2)cc1Nc1cc(-c2cccnc2)ccn1` in terms of IC50 at 48 h is 19

The reported value for Cc1cn(-c2cc(NC(=O)c3ccc(C)c(Nc4nccc(-c5cccnc5)n4)c3)cc(C(F)(F)F)c2)cn1 [NILOTINIB] in terms of IC50 at 48 h is 38.5

###

# Test Name: Tmax in male Sprague-Dawley rat at 20 mg/kg, po measured by LC-MS/MS analysis
# Assay type: ADME, organism-based
# Measurement Setup: in vivo
Measured Endpoint: Tmax (h)
# value in h; strip the unit string

The reported value for `Cc1ccc(C(=O)Nc2cc(-c3cnn(C)c3)cc(C(F)(F)F)c2)cc1Nc1cc(-c2cccnc2)ccn1` in terms of Tmax is 2.33

###

# Test Name: Volume of distribution at steady state in male Sprague-Dawley rat at 5 mg/kg, iv measured by LC-MS/MS analysis
# Type: ADME, organism-based
# Measurement Setup: in vivo, read-out: Vdss
Measured Endpoint: Vd (L/kg)
# value in L/kg; strip the unit string

The reported value for `Cc1ccc(C(=O)Nc2cc(-c3cnn(C)c3)cc(C(F)(F)F)c2)cc1Nc1cc(-c2cccnc2)ccn1` in terms of Vd is 5.36

###

# Test Name: Half-life in male Sprague-Dawley rat at 5 mg/kg, iv measured by LC-MS/MS analysis
# Type: ADME, organism-based
# Measurement Setup: in vivo
Measured Endpoint: half-life (h)
# value in h; strip the unit string

The reported value for `Cc1ccc(C(=O)Nc2cc(-c3cnn(C)c3)cc(C(F)(F)F)c2)cc1Nc1cc(-c2cccnc2)ccn1` in terms of half-life is 3.62

###

# Test Name: Clearance in male Sprague-Dawley rat at 5 mg/kg, iv measured by LC-MS/MS analysis
# Type: ADME, organism-based
# Measurement Setup: in vivo
Measured Endpoint: clearance
I'd appreciate it if you included the unit after the number.

The reported value for `Cc1ccc(C(=O)Nc2cc(-c3cnn(C)c3)cc(C(F)(F)F)c2)cc1Nc1cc(-c2cccnc2)ccn1` in terms of clearance is 1.06 L/h/kg

###

# Test Name: Cmax in male Sprague-Dawley rat at 20 mg/kg, po measured by LC-MS/MS analysis
# Type: ADME, organism-based
# Set-up: dose 20 mg/kg, route po
# Measurement Setup: in vivo
Measured Endpoint: Cmax (ng/mL)
# value in ng/mL; strip the unit string

The reported value for `Cc1ccc(C(=O)Nc2cc(-c3cnn(C)c3)cc(C(F)(F)F)c2)cc1Nc1cc(-c2cccnc2)ccn1` in terms of Cmax is 1380

###

# Test Name: Cytotoxicity against human L02 cells incubated for 48 hrs and measured by MTT assay
# Format: toxicity, cell-based
Kindly state IC50 at 48 h for each of the entries shown.

The reported value for `Cc1ccc(C(=O)Nc2ccc(CN3CCN(C)CC3)c(C(F)(F)F)c2)cc1Nc1cc(-c2cccnc2)ccn1` in terms of IC50 at 48 h is 37.4 µM

The reported value for `Cc1ccc(C(=O)Nc2ccc(CN3CCN(C)CC3)c(C(F)(F)F)c2)cc1Nc1cc(-c2cncnc2)ccn1` in terms of IC50 at 48 h is 30.1 µM

The reported value for `Cc1cn(-c2cc(NC(=O)c3ccc(C)c(Nc4cc(-c5cccnc5)ccn4)c3)cc(C(F)(F)F)c2)cn1` in terms of IC50 at 48 h is > 80 µM

The reported value for `Cc1ccc(C(=O)Nc2cc(-c3cnn(C)c3)cc(C(F)(F)F)c2)cc1Nc1cc(-c2cccnc2)ccn1` in terms of IC50 at 48 h is > 80 µM

The reported value for `Cc1cn(-c2cc(NC(=O)c3ccc(C)c(Nc4nccc(-c5cccnc5)n4)c3)cc(C(F)(F)F)c2)cn1` in terms of IC50 at 48 h is 40.4 µM

The reported value for `Cc1ccc(C(=O)Nc2cc(-c3cnn(C)c3)cc(C(F)(F)F)c2)cc1Nc1cc(-c2cncnc2)ccn1` in terms of IC50 at 48 h is > 80 µM

###

# Test Name: MRT (0 to infinity) in male Sprague-Dawley rat at 20 mg/kg, po measured by LC-MS/MS analysis
# Assay type: ADME, organism-based
# Measurement Setup: in vivo
Measured Endpoint: MRT inf (h)
# value in h; strip the unit string

The reported value for `Cc1ccc(C(=O)Nc2cc(-c3cnn(C)c3)cc(C(F)(F)F)c2)cc1Nc1cc(-c2cccnc2)ccn1` in terms of MRT inf is 5.93

###

# Test Name: MRT (0 to t) in male Sprague-Dawley rat at 5 mg/kg, iv measured by LC-MS/MS analysis
# Format: ADME, organism-based
# Measurement Setup: in vivo
Measured Endpoint: MRT last (h)
# value in h; strip the unit string

The reported value for `Cc1ccc(C(=O)Nc2cc(-c3cnn(C)c3)cc(C(F)(F)F)c2)cc1Nc1cc(-c2cccnc2)ccn1` in terms of MRT last is 5.29

###

# Test Name: Cytotoxicity against rat H9c2 cells incubated for 48 hrs and measured by MTT assay
# Format: toxicity, cell-based
Measured Endpoint: IC50 at 48 h (µM)
# value in µM; strip the unit string

The reported value for `Cc1ccc(C(=O)Nc2ccc(CN3CCN(C)CC3)c(C(F)(F)F)c2)cc1Nc1cc(-c2cccnc2)ccn1` in terms of IC50 at 48 h is 9.12

The reported value for `Cc1cn(-c2cc(NC(=O)c3ccc(C)c(Nc4nccc(-c5cccnc5)n4)c3)cc(C(F)(F)F)c2)cn1` in terms of IC50 at 48 h is 21.3

The reported value for `Cc1ccc(C(=O)Nc2ccc(CN3CCN(C)CC3)c(C(F)(F)F)c2)cc1Nc1cc(-c2cncnc2)ccn1` in terms of IC50 at 48 h is 16.7
